# Assay procedure: Bioavailability in Wistar rat at 10 mg/kg, […]
# Type: ADME, organism-based
# Assay conditions: in vivo
Please provide measured bioavailability for the entries that follow.

Incoming: Consider the molecule "COC[C@H](C)NC(=O)c1nc(N2CC[C@@H](NC(=O)c3[nH]c(C)c(Cl)c3Cl)[C@@H](OC)C2)sc1C(=O)O" and give its measured bioavailability.
Outgoing: 81%

Incoming: Consider the molecule "CO[C@H]1CN(c2nc(-c3ncnn3C)c(C(=O)O)s2)CC[C@H]1NC(=O)c1[nH]c(C)c(Cl)c1Cl" and give its measured bioavailability.
Outgoing: 65%

Incoming: Consider the molecule "CO[C@H]1CN(c2ncc(C(=O)O)s2)CC[C@H]1NC(=O)c1[nH]c(C)c(Cl)c1Cl" and give its measured bioavailability.
Outgoing: 6.7%

Incoming: Consider the molecule "COCCNC(=O)c1nc(N2CC[C@@H](NC(=O)c3[nH]c(C)c(Cl)c3Cl)[C@@H](OC)C2)sc1C(=O)O" and give its measured bioavailability.
Outgoing: 34%

Incoming: Consider the molecule "CO[C@H]1CN(c2nc(-c3ncccn3)c(C(=O)O)s2)CC[C@H]1NC(=O)c1[nH]c(C)c(Cl)c1Cl" and give its measured bioavailability.
Outgoing: 100%

Incoming: Consider the molecule "Cc1[nH]c(C(=O)NC2CCN(c3ncc(C(=O)O)s3)CC2)c(Cl)c1Cl" and give its measured bioavailability.
Outgoing: 6.7%
